Assay: in vitro
Details: human, Caco-2, pH 7.4, Caco-2 Mean Recovery % B to A
measuredAttribute: recovery at 120 min, 3 μM (%)
Please give a number only; it is taken to be in %.

• O=C(Cc1ccc(C2=NCCN2)cc1)N[C@@H]1C(=O)N2C(C(=O)O)=C(CSc3nncs3)CS[C@H]12 = 110

Proceeding to the next compound to report its recovery at 120 min, 3 μM.
## Input I would be grateful if you could share the reported recovery at 120 min, 3 μM for O=C(CCCC(NC(=O)c1ccc(Cl)cc1Cl)C(=O)O)N[C@@H]1C(=O)N2C(C(=O)O)=C(CSc3cccc[n+]3[O-])CS[C@H]12 (some centres unmarked) .
## Output 123

FYI, the data here is from paper PMC8922279.
